Property: % degradation of peptides in 24 h when incubated with simulated gastric fluid; scope: individual molecules
Test: Stability of peptides in simulated gastric fluid (pH 1.5; HCl, NaCl and Pepsin)
Type: in vitro ADME
Conditions: simulated gastric fluid, 24 h, 2 μM, pH 1.5
Where a SMILES comes first, the peptide text is derived from it. [ ]: non-standard residue; d: D form. ξ: configuration not given here. ξBip(2'-Et-4'-OMe) = CCc1cc(OC)ccc1-c1ccc(CC(N)C(=O)O)cc1; αMePhe(2,6-F2) = C[C@](N)(Cc1c(F)cccc1F)C(=O)O; ξαMePhe(2,6-F2) = CC(N)(Cc1c(F)cccc1F)C(=O)O; αMePhe(2-F) = C[C@](N)(Cc1ccccc1F)C(=O)O; ξαMePhe(2-F) = CC(N)(Cc1ccccc1F)C(=O)O; hhPhe = N[C@@H](CCCc1ccccc1)C(=O)O; hArg = N=C(N)NCCCC[C@H](N)C(=O)O; hCit = NC(=O)NCCCC[C@H](N)C(=O)O; Cit = NC(=O)NCCC[C@H](N)C(=O)O; ξαMeF = CC(N)(Cc1ccccc1)C(=O)O; Nle = CCCC[C@H](N)C(=O)O; ξαMeP = CC1(C(=O)O)CCCN1; Ac5c = NC1(C(=O)O)CCCC1; Ac3c = NC1(C(=O)O)CC1; Aib = CC(C)(N)C(=O)O
# number only, unit % dropped from output

As a guide, the following entries are already answered.
molecule	value.units	observed.result
CCCC[C@H](NC(=O)C(C)(Cc1ccccc1F)NC(=O)[C@H](CCC(N)=O)NC(=O)[C@@H](NC(=O)[C@H](CCC(=O)O)NC(=O)C(C)(C)NC(=O)[C@@H](NC(=O)C(C)(C)N)C(C)C)[C@@H](C)CC)C(=O)N[C@@H](Cc1c[nH]cn1)C(=O)N[C@@H](CCC(N)=O)C(=O)NC(C)(Cc1c(F)cccc1F)C(=O)NC(C)(C)C(=O)NC(C)(C)C(=O)NC(C)(Cc1ccccc1F)C(N)=O (some centres unmarked) [Seq. ID. 490] (H-[Aib]V[Aib]EIQ[ξαMePhe(2-F)][Nle]HQ[ξαMePhe(2,6-F2)][Aib][Aib][ξαMePhe(2-F)]-NH2)	%	43
CCCC[C@H](NC(=O)C(C)(Cc1c(F)cccc1F)NC(=O)[C@H](CCC(N)=O)NC(=O)[C@@H](NC(=O)[C@H](CCC(=O)O)NC(=O)C1(NC(=O)[C@@H](NC(=O)C2(N)CCCC2)C(C)C)CCCC1)[C@@H](C)CC)C(=O)N[C@@H](Cc1c[nH]cn1)C(=O)N[C@@H](CCC(N)=O)C(=O)N[C@@H](CCCCNC(=N)N)C(=O)N1CCCC1(C)C(=O)N[C@@H](CCCCN)C(=O)NC(C)(Cc1ccccc1)C(N)=O (some centres unmarked) [Seq. ID. 46] (H-[Ac5c]V[Ac5c]EIQ[ξαMePhe(2,6-F2)][Nle]HQ[hArg][ξαMeP]K[ξαMeF]-NH2)	%	00
CCCC[C@H](NC(=O)C(C)(Cc1ccccc1F)NC(=O)[C@H](CCC(N)=O)NC(=O)[C@@H](NC(=O)[C@H](CCC(=O)O)NC(=O)C(C)(C)NC(=O)[C@@H](NC(=O)C(C)(C)N)C(C)C)[C@@H](C)CC)C(=O)N[C@@H](Cc1c[nH]cn1)C(=O)N[C@@H](CCC(N)=O)C(=O)N[C@@H](CCCCNC(=N)N)C(=O)NC(C)(C)C(=O)NC(C)(C)C(=O)NC(C)(Cc1c(F)cccc1F)C(N)=O (some centres unmarked) [Seq. ID. 182] (H-[Aib]V[Aib]EIQ[ξαMePhe(2-F)][Nle]HQ[hArg][Aib][Aib][ξαMePhe(2,6-F2)]-NH2)	%	00
CCCC[C@H](NC(=O)[C@](C)(Cc1ccccc1F)NC(=O)[C@H](CCC(N)=O)NC(=O)[C@@H](NC(=O)[C@H](CCC(=O)O)NC(=O)C(C)(C)NC(=O)[C@@H](NC(=O)C(C)(C)N)C(C)C)[C@@H](C)CC)C(=O)N[C@@H](Cc1c[nH]cn1)C(=O)N[C@@H](CCC(N)=O)C(=O)N[C@@H](CCCCNC(=N)N)C(=O)NC(C)(C)C(=O)N[C@@H](CCCNC(N)=O)C(=O)N[C@@](C)(Cc1c(F)cccc1F)C(N)=O [Seq. ID. 142] (H-[Aib]V[Aib]EIQ[αMePhe(2-F)][Nle]HQ[hArg][Aib][Cit][αMePhe(2,6-F2)]-NH2)	%	13
CCCC[C@H](NC(=O)C(C)(Cc1ccccc1F)NC(=O)[C@H](CCC(N)=O)NC(=O)[C@@H](NC(=O)[C@H](CCC(=O)O)NC(=O)C(C)(C)NC(=O)[C@@H](NC(=O)C1(N)CCCC1)C(C)C)[C@@H](C)CC)C(=O)N[C@@H](Cc1c[nH]cn1)C(=O)N[C@@H](CCC(N)=O)C(=O)N[C@@H](CCCNC(N)=O)C(=O)NC(C)(C)C(=O)NC(C)(Cc1c(F)cccc1F)C(=O)NC(C)(Cc1ccccc1F)C(N)=O (some centres unmarked) [Seq. ID. 380] (H-[Ac5c]V[Aib]EIQ[ξαMePhe(2-F)][Nle]HQ[Cit][Aib][ξαMePhe(2,6-F2)][ξαMePhe(2-F)]-NH2)	%	50
CCCCC(C)(NC(=O)[C@H](CC(C)C)NC(=O)[C@H](CCC(N)=O)NC(=O)[C@@H](NC(=O)[C@H](CCC(=O)O)NC(=O)C(C)(C)NC(=O)[C@@H](NC(=O)C1(NC(=O)[C@@H](N)C(C)C)CCCC1)C(C)C)[C@@H](C)CC)C(=O)N[C@@H](Cc1c[nH]cn1)C(=O)N[C@@H](CCC(N)=O)C(=O)N[C@@H](CCCCNC(=N)N)C(=O)N[C@@H](C)C(=O)N[C@@H](CCCCNC(=N)N)C(=O)NC(Cc1ccc(-c2ccc(OC)cc2CC)cc1)C(=O)NC(C)(CCCc1ccccc1)C(N)=O (single isomer, unassigned)	%	100
CCCC[C@H](NC(=O)[C@H](CC(C)C)NC(=O)[C@H](CCC(N)=O)NC(=O)[C@@H](NC(=O)[C@H](CCC(=O)O)NC(=O)C1(NC(=O)[C@@H](NC(=O)C2(N)CC2)C(C)C)CC1)[C@@H](C)CC)C(=O)N[C@@H](Cc1c[nH]cn1)C(=O)N[C@@H](CCC(N)=O)C(=O)N[C@@H](CCCCNC(=N)N)C(=O)N[C@@H](C)C(=O)N[C@@H](CCCCN)C(=O)NC(Cc1ccc(-c2ccc(OC)cc2CC)cc1)C(=O)N[C@@H](CCCc1ccccc1)C(N)=O (some centres unmarked) [Seq. ID. 610] (H-[Ac3c]V[Ac3c]EIQL[Nle]HQ[hArg]AK[ξBip(2'-Et-4'-OMe)][hhPhe]-NH2)	%	14

Let us examine a further case.
Measured % degradation of peptides in 24 h when incubated with simulated gastric fluid, CCCC[C@H](NC(=O)[C@H](CC(C)C)NC(=O)[C@H](CCC(N)=O)NC(=O)[C@@H](NC(=O)[C@H](CCC(=O)O)NC(=O)C(C)(C)NC(=O)[C@@H](NC(=O)C(C)(C)N)C(C)C)[C@@H](C)CC)C(=O)N[C@@H](Cc1c[nH]cn1)C(=O)N[C@@H](CCC(N)=O)C(=O)N[C@@H](CCCCNC(N)=O)C(=O)NC(C)(C)C(=O)NC(C)(C)C(=O)NC(Cc1ccc(-c2ccc(OC)cc2CC)cc1)C(=O)N[C@@H](CCCc1ccccc1)C(N)=O (some centres unmarked) [Seq. ID. 790] (H-[Aib]V[Aib]EIQL[Nle]HQ[hCit][Aib][Aib][ξBip(2'-Et-4'-OMe)][hhPhe]-NH2) : 43
